Procedure Text: In vivo biodistribution and regional brain uptake in rats
Condition Set: male SD rats, i.v., 5 min p.i.
As shown below, each of these molecules has a reported Biodistribution, fat value.
All answers are understood in %ID/gram, so give the number only.

Reference set (3 entries):
Molecule	Biodistribution, fat [%ID/gram]
Cn1cc(-c2ccncc2)c(-c2ccc(OCc3cc(O[11CH3])c4ccccc4n3)cc2)n1 [[^11C]2]	0.242
Cn1ncc(-c2ccncc2)c1-c1ccc(OCc2cc(O[11CH3])c3ccccc3n2)cc1 [[^11C]4]	0.066
Cn1cc(-c2ccncc2)c(-c2ccc(OCc3ccc4cc(O[11CH3])ccc4n3)cc2)n1 [[^11C]3]	0.139

Attention now turns to another entry.
Q) Any idea what its Biodistribution, fat is? The molecule is Cn1cc(-c2ccncc2)c(-c2ccc(OCc3nc4ccccc4cc3O[11CH3])cc2)n1 [[^11C]1]
A) 0.935

* * *

Procedure Text: In vivo biodistribution and regional brain uptake in rats
Condition Set: male SD rats, i.v., 5 min p.i.
As shown below, each of these compounds has a reported Biodistribution, muscle value.
All answers are understood in %ID/gram, so give the number only.

Q) Any idea what its Biodistribution, muscle is? The compound is Cn1cc(-c2ccncc2)c(-c2ccc(OCc3ccc4cc(O[11CH3])ccc4n3)cc2)n1 [[^11C]3]
A) 0.151

Q) Any idea what its Biodistribution, muscle is? The compound is Cn1cc(-c2ccncc2)c(-c2ccc(OCc3nc4ccccc4cc3O[11CH3])cc2)n1 [[^11C]1]
A) 0.412

Q) Any idea what its Biodistribution, muscle is? The compound is Cn1ncc(-c2ccncc2)c1-c1ccc(OCc2cc(O[11CH3])c3ccccc3n2)cc1 [[^11C]4]
A) 0.146

Q) Any idea what its Biodistribution, muscle is? The compound is Cn1cc(-c2ccncc2)c(-c2ccc(OCc3cc(O[11CH3])c4ccccc4n3)cc2)n1 [[^11C]2]
A) 0.258

* * *

As shown below, each of these molecules has a reported Biodistribution, striatum value.
Procedure Text: In vivo biodistribution and regional brain uptake in rats
Condition Set: male SD rats, i.v., 60 min p.i.

Reference set (3 entries):
Molecule	Biodistribution, striatum
Cn1ncc(-c2ccncc2)c1-c1ccc(OCc2cc(O[11CH3])c3ccccc3n2)cc1 [[^11C]4]	0.037 ± 0.004 ^a %ID/gram
Cn1cc(-c2ccncc2)c(-c2ccc(OCc3ccc4cc(O[11CH3])ccc4n3)cc2)n1 [[^11C]3]	0.089 ± 0.014 ^a %ID/gram
Cn1cc(-c2ccncc2)c(-c2ccc(OCc3nc4ccccc4cc3O[11CH3])cc2)n1 [[^11C]1]	0.380 ± 0.048 ^a %ID/gram

Q) Any idea what its Biodistribution, striatum is? The molecule is Cn1cc(-c2ccncc2)c(-c2ccc(OCc3cc(O[11CH3])c4ccccc4n3)cc2)n1 [[^11C]2]
A) 0.201 ± 0.037 ^a %ID/gram

* * *

As shown below, each of these molecules has a reported Biodistribution, cerebellum value.
Procedure Text: In vivo biodistribution and regional brain uptake in rats
Condition Set: male SD rats, i.v., 5 min p.i.
All answers are understood in %ID/gram, so give the number only.

Reference set (3 entries):
Molecule	Readout Number
Cn1cc(-c2ccncc2)c(-c2ccc(OCc3cc(O[11CH3])c4ccccc4n3)cc2)n1 [[^11C]2]	0.215
Cn1ncc(-c2ccncc2)c1-c1ccc(OCc2cc(O[11CH3])c3ccccc3n2)cc1 [[^11C]4]	0.094
Cn1cc(-c2ccncc2)c(-c2ccc(OCc3ccc4cc(O[11CH3])ccc4n3)cc2)n1 [[^11C]3]	0.251

Attention now turns to another entry.
Q) Any idea what its Biodistribution, cerebellum is? The molecule is Cn1cc(-c2ccncc2)c(-c2ccc(OCc3nc4ccccc4cc3O[11CH3])cc2)n1 [[^11C]1]
A) 0.229

All values here come from paper PMC4054929.
